Molecular target: T1, HCV bt-151-171 (Peptide 3, HCVc 151-171) (Hepatitis C virus (numbering per HCV-1), biotin (carboxy-terminal per; N-terminal per))
T1 peptide: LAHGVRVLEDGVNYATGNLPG
Assay: EIA, captured mAb + biotin peptide
The following binders are listed with their measured Reactivity (OD 492 nm) values.
Response body: numeric value in OD units, unit text excluded.

Answered cases to consult:
HCV 208A-638 (antibody, V domains shown) VH: QGQLQQPGAEFVKPGASLKLSCRASGYTFTSYWIHWVKQRPGQGLEWIGEVDPSDSYINQNEKFRGKATLTVDKSSSTAYMQLGSLTSEDSAVYYCARHYYGVLDSWGQGTALTVSS VL: QIVLTQSPTIMSASLGERVTMTCTASSSVSSSYLHWFQQKPGSSPKLWIYSTSNLASGVPPRFSGSGSGTSYSLSISSVEAEDVATYYCLQFHRSPWTFGGGAKLEIKR    0.09
HCV 208B-822 (antibody, V domains shown) VH: QVQLKQSGPGLVQPSQSLSITCTVSGFSLITYGVHWVRQSPGKGLEWLGVIWGGGSTGYNAAFVSRLNITKDNSKSQVFFKMNSLQPDDTAIYYCARNGGATVFDYWGQGTTLTVSS VL: DIVMTQSPATLSVTPGDRVSLSCRASQTISDYLHWYQQKSHESPRLLIKYASQSISGIPSRFSGSGSGSHFTLSINSVEPEDVGVYYCQNGHSFPWTFGGGTKLEIKR    0.07

Here's the next entry for you.
[Q] Supply measured Reactivity (OD 492 nm) of HCV 208B-560 (antibody, V domains shown) VH: EVQLQQSGPELEKPGASVKISCKTSGYTFTEYAMHWVKQSHGMSLEWIGGINPSNGNAIYNQIFKDKATLTVDRSSSTAYMGLRSLTFGDSGVYFCVRRQLDFFDYWGQGASLTVSS VL: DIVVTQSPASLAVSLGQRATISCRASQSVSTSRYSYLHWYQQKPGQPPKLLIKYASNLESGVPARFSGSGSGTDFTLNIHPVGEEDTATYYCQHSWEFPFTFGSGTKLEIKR in your reply.
[A] 0.14
